Taken from paper PMC7774954.

This listing pairs compounds with measured BI.
Test system: INADL-1
experiment: Holdup assay, INADL-1
Format: binding, human
*1 amine or outer side, *2 acyl side, *3 side chain or, on linkers, in order; H or OH if unused. Where a SMILES comes first, the peptide text is derived from it. The star is where a group is joined. X1 = O=C(CCCC[C@@H]1SC[C@@H]2NC(=O)N[C@@H]21)NCCCOCCOCCOCCCN*; Suc = O=C(CCC(=O)[*:2])[*:1]
Number only, no unit.

Example cases with answers are listed next.
[
  {
    "compound": "CC[C@H](C)[C@H](NC(=O)[C@H](CCC(N)=O)NC(=O)[C@@H](NC(=O)[C@H](Cc1c[nH]cn1)NC(=O)[C@H](CCC(N)=O)NC(=O)[C@H](CC(=O)O)NC(=O)[C@H](CCC(=O)O)NC(=O)[C@H](CC(=O)O)NC(=O)CCC(=O)NCCCOCCOCCOCCCNC(=O)CCCC[C@@H]1SC[C@@H]2NC(=O)N[C@@H]21)[C@@H](C)O)C(=O)N[C@H](C(=O)N[C@@H](CCCCN)C(=O)N[C@H](C(=O)O)C(C)C)[C@@H](C)O",
    "experimental value": 0.022
  },
  {
    "compound": "CC[C@H](C)[C@H](NC(=O)[C@H](CCC(N)=O)NC(=O)[C@@H](NC(=O)[C@H](Cc1c[nH]cn1)NC(=O)[C@H](CCC(N)=O)NC(=O)[C@H](CC(=O)O)NC(=O)[C@H](CCC(=O)O)NC(=O)[C@H](CC(=O)O)NC(=O)[C@H](Cc1ccccc1)NC(=O)[C@@H]1CCCN1C(=O)CCC(=O)NCCCOCCOCCOCCCNC(=O)CCCC[C@@H]1SC[C@@H]2NC(=O)N[C@@H]21)[C@@H](C)O)C(=O)N[C@H](C(=O)N[C@@H](CCCCN)C(=O)N[C@H](C(=O)O)C(C)C)[C@@H](C)O [PTEN_13] ({X1-Suc}-PFDEDQHTQITKV-OH)",
    "experimental value": 0.086
  },
  {
    "compound": "CC[C@H](C)[C@H](NC(=O)[C@H](CCC(N)=O)NC(=O)[C@@H](NC(=O)[C@H](Cc1c[nH]cn1)NC(=O)[C@H](CCC(N)=O)NC(=O)[C@H](CC(=O)O)NC(=O)[C@H](CCC(=O)O)NC(=O)[C@H](CC(=O)O)NC(=O)CCC(=O)NCCCOCCOCCOCCCNC(=O)CCCC[C@@H]1SC[C@@H]2NC(=O)N[C@@H]21)[C@@H](C)O)C(=O)N[C@H](C(=O)N[C@@H](CCCNC(=N)N)C(=O)N[C@H](C(=O)O)C(C)C)[C@@H](C)O [PTEN_KR] ({X1-Suc}-DEDQHTQITRV-OH)",
    "experimental value": 0.058
  }
]

Field: next compound
# lookup: BI of CC[C@H](C)[C@H](NC(=O)[C@H](CCC(N)=O)NC(=O)[C@@H](NC(=O)[C@H](Cc1c[nH]cn1)NC(=O)[C@H](CCC(N)=O)NC(=O)[C@H](CC(=O)O)NC(=O)[C@H](CCC(=O)O)NC(=O)[C@H](CC(=O)O)NC(=O)CCC(=O)NCCCOCCOCCOCCCNC(=O)CCCC[C@@H]1SC[C@@H]2NC(=O)N[C@@H]21)[C@@H](C)O)C(=O)N[C@H](C(=O)N[C@@H](CCCCNC(C)=O)C(=O)N[C@H](C(=O)O)C(C)C)[C@@H](C)O
0.004

----------
system under test: INADL-6 (Homo sapiens, UniProt Q8NI35)
Sequence (Q8NI35 whole entry): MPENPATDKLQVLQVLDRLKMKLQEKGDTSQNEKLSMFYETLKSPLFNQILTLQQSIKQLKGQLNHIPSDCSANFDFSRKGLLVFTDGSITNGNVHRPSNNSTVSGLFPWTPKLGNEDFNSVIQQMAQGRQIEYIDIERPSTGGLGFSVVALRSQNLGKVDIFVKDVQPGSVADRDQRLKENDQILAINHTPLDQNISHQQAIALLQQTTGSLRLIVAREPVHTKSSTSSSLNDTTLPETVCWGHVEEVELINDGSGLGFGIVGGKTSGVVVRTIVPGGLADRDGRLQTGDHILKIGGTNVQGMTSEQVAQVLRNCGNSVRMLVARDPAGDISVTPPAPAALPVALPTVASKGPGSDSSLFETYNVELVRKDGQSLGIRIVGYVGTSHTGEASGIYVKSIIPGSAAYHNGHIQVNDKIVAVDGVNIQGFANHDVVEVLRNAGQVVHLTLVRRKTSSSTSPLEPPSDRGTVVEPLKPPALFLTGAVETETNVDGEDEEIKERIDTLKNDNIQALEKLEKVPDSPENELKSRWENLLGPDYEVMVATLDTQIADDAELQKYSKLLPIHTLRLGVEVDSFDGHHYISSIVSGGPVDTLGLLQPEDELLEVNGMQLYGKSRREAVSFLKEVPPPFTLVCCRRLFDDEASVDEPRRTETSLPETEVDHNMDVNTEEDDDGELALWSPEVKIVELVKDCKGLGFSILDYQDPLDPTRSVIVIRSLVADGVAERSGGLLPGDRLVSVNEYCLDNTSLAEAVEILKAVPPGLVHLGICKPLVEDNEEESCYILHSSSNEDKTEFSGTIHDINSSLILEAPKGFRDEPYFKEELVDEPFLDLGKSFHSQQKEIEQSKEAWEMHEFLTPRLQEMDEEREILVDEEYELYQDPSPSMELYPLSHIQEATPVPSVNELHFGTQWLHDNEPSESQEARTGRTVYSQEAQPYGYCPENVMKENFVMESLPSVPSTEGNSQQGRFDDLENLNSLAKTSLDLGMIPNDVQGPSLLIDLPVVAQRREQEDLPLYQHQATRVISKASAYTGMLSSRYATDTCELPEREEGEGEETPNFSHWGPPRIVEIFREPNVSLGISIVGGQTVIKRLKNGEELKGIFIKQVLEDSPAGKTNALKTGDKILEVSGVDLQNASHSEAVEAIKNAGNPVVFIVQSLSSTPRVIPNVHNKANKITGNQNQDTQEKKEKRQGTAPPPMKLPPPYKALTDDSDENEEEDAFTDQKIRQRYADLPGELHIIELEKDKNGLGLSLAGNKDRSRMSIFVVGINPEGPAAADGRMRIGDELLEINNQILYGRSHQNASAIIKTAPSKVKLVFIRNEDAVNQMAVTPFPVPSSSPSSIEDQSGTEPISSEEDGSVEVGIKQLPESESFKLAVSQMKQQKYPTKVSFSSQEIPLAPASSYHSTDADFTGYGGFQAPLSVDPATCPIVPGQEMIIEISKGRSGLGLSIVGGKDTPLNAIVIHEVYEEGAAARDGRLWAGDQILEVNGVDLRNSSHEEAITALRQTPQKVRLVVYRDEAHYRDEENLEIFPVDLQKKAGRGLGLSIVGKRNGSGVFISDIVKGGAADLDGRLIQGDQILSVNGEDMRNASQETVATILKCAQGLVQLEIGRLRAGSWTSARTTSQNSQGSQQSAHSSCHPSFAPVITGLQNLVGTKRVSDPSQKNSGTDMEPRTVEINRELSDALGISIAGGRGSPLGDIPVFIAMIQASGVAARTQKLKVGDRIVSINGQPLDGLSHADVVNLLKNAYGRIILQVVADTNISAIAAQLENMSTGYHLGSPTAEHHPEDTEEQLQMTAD
experiment: Holdup assay, INADL-6
Assay type: binding
property measured: BI
Number only, no unit.

Please tell me: BI of CC[C@H](C)[C@H](NC(=O)[C@H](CCC(N)=O)NC(=O)[C@@H](NC(=O)[C@H](Cc1c[nH]cn1)NC(=O)[C@H](CCC(N)=O)NC(=O)[C@H](CC(=O)O)NC(=O)[C@H](CCC(=O)O)NC(=O)[C@H](CC(=O)O)NC(=O)CCC(=O)NCCCOCCOCCOCCCNC(=O)CCCC[C@@H]1SC[C@@H]2NC(=O)N[C@@H]21)[C@@H](C)O)C(=O)N[C@H](C(=O)N[C@@H](CCCCNC(C)=O)C(=O)N[C@H](C(=O)O)C(C)C)[C@@H](C)O , system INADL-6 (Homo sapiens, UniProt Q8NI35)?
0.316

----------
system under test: ARHGEF12-1 (Homo sapiens)
Sequence (Q9NZN5 72-151): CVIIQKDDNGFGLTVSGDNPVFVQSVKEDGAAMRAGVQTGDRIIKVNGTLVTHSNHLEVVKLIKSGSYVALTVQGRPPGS
experiment: Holdup assay, ARHGEF12-1
Assay type: binding
*1 amine or outer side, *2 acyl side, *3 side chain or, on linkers, in order; H or OH if unused. Where a SMILES comes first, the peptide text is derived from it. The star is where a group is joined. X1 = O=C(CCCC[C@@H]1SC[C@@H]2NC(=O)N[C@@H]21)NCCCOCCOCCOCCCN*; Suc = O=C(CCC(=O)[*:2])[*:1]
property measured: BI
Number only, no unit.

# lookup: BI of CC[C@H](C)[C@H](NC(=O)[C@H](CCC(N)=O)NC(=O)[C@@H](NC(=O)[C@H](Cc1c[nH]cn1)NC(=O)[C@H](CCC(N)=O)NC(=O)[C@H](CC(=O)O)NC(=O)[C@H](CCC(=O)O)NC(=O)[C@H](CC(=O)O)NC(=O)[C@H](Cc1ccccc1)NC(=O)[C@@H]1CCCN1C(=O)CCC(=O)NCCCOCCOCCOCCCNC(=O)CCCC[C@@H]1SC[C@@H]2NC(=O)N[C@@H]21)[C@@H](C)O)C(=O)N[C@H](C(=O)N[C@@H](CCCCN)C(=O)N[C@H](C(=O)O)C(C)C)[C@@H](C)O [PTEN_13] ({X1-Suc}-PFDEDQHTQITKV-OH)
0.169

----------
This listing pairs compounds with measured BI.
system under test: GORASP2-1 (Homo sapiens)
experiment: Holdup assay, GORASP2-1
Assay type: binding
condition context: GORASP2-1
*1 amine or outer side, *2 acyl side, *3 side chain or, on linkers, in order; H or OH if unused. Where a SMILES comes first, the peptide text is derived from it. The star is where a group is joined. X1 = O=C(CCCC[C@@H]1SC[C@@H]2NC(=O)N[C@@H]21)NCCCOCCOCCOCCCN*; Suc = O=C(CCC(=O)[*:2])[*:1]

Example cases with answers are listed next.
[
  {
    "compound": "CC[C@H](C)[C@H](NC(=O)[C@H](CCC(N)=O)NC(=O)[C@@H](NC(=O)[C@H](Cc1c[nH]cn1)NC(=O)[C@H](CCC(N)=O)NC(=O)[C@H](CC(=O)O)NC(=O)[C@H](CCC(=O)O)NC(=O)[C@H](CC(=O)O)NC(=O)[C@H](Cc1ccccc1)NC(=O)[C@@H]1CCCN1C(=O)CCC(=O)NCCCOCCOCCOCCCNC(=O)CCCC[C@@H]1SC[C@@H]2NC(=O)N[C@@H]21)[C@@H](C)O)C(=O)N[C@H](C(=O)N[C@@H](CCCCN)C(=O)N[C@H](C(=O)O)C(C)C)[C@@H](C)O [PTEN_13] ({X1-Suc}-PFDEDQHTQITKV-OH)",
    "system under test": "GORASP2-1 (Homo sapiens)",
    "property measured": "BI",
    "experimental value": 0.092
  },
  {
    "compound": "CC[C@H](C)[C@H](NC(=O)[C@H](CCC(N)=O)NC(=O)[C@@H](NC(=O)[C@H](Cc1c[nH]cn1)NC(=O)[C@H](CCC(N)=O)NC(=O)[C@H](CC(=O)O)NC(=O)[C@H](CCC(=O)O)NC(=O)[C@H](CC(=O)O)NC(=O)CCC(=O)NCCCOCCOCCOCCCNC(=O)CCCC[C@@H]1SC[C@@H]2NC(=O)N[C@@H]21)[C@@H](C)O)C(=O)N[C@H](C(=O)N[C@@H](CCCNC(=N)N)C(=O)N[C@H](C(=O)O)C(C)C)[C@@H](C)O [PTEN_KR] ({X1-Suc}-DEDQHTQITRV-OH)",
    "system under test": "GORASP2-1 (Homo sapiens)",
    "property measured": "BI",
    "experimental value": 0.586
  }
]

Field: next compound
# lookup: BI of CC[C@H](C)[C@H](NC(=O)[C@H](CCC(N)=O)NC(=O)[C@@H](NC(=O)[C@H](Cc1c[nH]cn1)NC(=O)[C@H](CCC(N)=O)NC(=O)[C@H](CC(=O)O)NC(=O)[C@H](CCC(=O)O)NC(=O)[C@H](CC(=O)O)NC(=O)CCC(=O)NCCCOCCOCCOCCCNC(=O)CCCC[C@@H]1SC[C@@H]2NC(=O)N[C@@H]21)[C@@H](C)O)C(=O)N[C@H](C(=O)N[C@@H](CCCCNC(C)=O)C(=O)N[C@H](C(=O)O)C(C)C)[C@@H](C)O
0.418
